experiment: in vitro; conditions: human, A549-dual ACE2 TMPRSS2 cells without virus
READOUT: CC50

[[record]]
structure_smiles_string = "COC(=O)N[C@H](C(=O)N1C[C@@H]2[C@H]3C[C@@H]([C@@H]2[C@H]1C(=O)N[C@H](C#N)C[C@@H]1CCNC1=O)[C@H](F)C3)C(C)(C)C"
result_value = "> 1000 nM"

[[record]]
structure_smiles_string = "CC(C)(C)[C@H](NC(=O)OC1CC1)C(=O)N1C[C@@H]2[C@H]3C[C@@H]([C@@H]2[C@H]1C(=O)N[C@H](C#N)C[C@@H]1CCNC1=O)[C@H](F)C3"
result_value = "> 1000 nM"

[[record]]
structure_smiles_string = "COC(=O)N[C@H](C(=O)N1C[C@H]2[C@@H]([C@H]1C(=O)N[C@H](C#N)C[C@@H]1CCNC1=O)[C@H]1C=C[C@@H]2C1)C(C)(C)C"
result_value = "> 1000 nM"


These measurements were taken from patent US12630538B2.
